assay: binders of probe aFGF2 on microarray, primary screen, stem cell growth factor project, biochemical, small-molecule microarray, fluorescence 635/667 (AID 1067); settings: higher = more signal;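 note: measures binding of biotinylated aFGF2 protein to printed compounds on slides; z-score merges feature fluorescence and signal-to-noise across triplicate slides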
endpoint.label: composite z-score

| compound | experimental.value |
| --- | --- |
| COc1ccc(NN2C(C(O)c3ccc(F)cc3)C=CC3C(=O)N(C4CCCCC4)C(=O)C32)cc1 (centres undefined) | 0.133 |
| Cc1ccc(S[C@]2(C(=O)NC3CC3)CC(=O)N(C3Cc4ccccc4C3)[C@@H]2c2ccc(CO)cc2I)cc1 | -0.133 |
| CCOC(=O)C[C@H]1[C@H](OC(=O)c2ccccc2-c2ccccc2)[C@@H](NC(=O)CC(C)C)c2cc(OCCCO)ccc2N1C(=O)c1ccccc1 | -0.0632 |
| COC(=O)C(CC#Cc1ccc2c(c1)[C@]1(C(=O)N2)[C@H](C(=O)NC[C@H](O)c2ccccc2)[C@H]2C(=O)O[C@H](c3ccccc3)[C@H](c3ccccc3)N2[C@@H]1c1ccc(O)cc1)C(=O)OC | -0.121 |
| CN1C(=O)C2C=CC(C(O)c3ccc([N+](=O)[O-])cc3)N(Nc3ccccc3)C2C1=O (centres undefined) | 0.235 |
| C=CCNC(=O)[C@H]1[C@@H]2C(=O)O[C@@H](c3ccccc3)[C@@H](c3ccccc3)N2[C@@H](c2ccc(OCCO)cc2)[C@]12C(=O)N(C(=O)OCCOC)c1ccc(C#CCNC(N)=O)cc12 | -0.399 |
| COCCOC(=O)N1C(=O)[C@@]2(c3cc(C#CCNC(N)=O)ccc31)[C@H](c1ccccc1OCCO)N1[C@H](c3ccccc3)[C@H](c3ccccc3)OC(=O)[C@H]1[C@@H]2C(=O)N1CCCCCCC1 | 0.0495 |
| C=C1C(=O)C=C2CN(C(=O)c3ccccc3)[C@@](Cc3ccc(F)cc3)(C(=O)OC)[C@@H]12 | 0.25 |
| O=C1C2C=CC(C(O)C3CCCCC3)N(Nc3ccccc3F)C2C(=O)N1c1ccccc1 (centres undefined) | 0.257 |
| C=CC[C@H](O)c1ccc(O)c(F)c1 | -0.076 |
| COCCOC(=O)N1C(=O)[C@@]2(c3cc(C#CCNC(N)=O)ccc31)[C@H](C(=O)N1CCN(c3ncccn3)CC1)[C@H]1C(=O)O[C@H](c3ccccc3)[C@H](c3ccccc3)N1[C@@H]2c1ccc(O)cc1 | -0.282 |
| C=C(C(=O)CC[C@H](OC(=O)c1ccccc1-c1ccccc1C(=O)O)c1ccc(OCCO)cc1)C(C)C | 0.0033 |
| O=C(NCC(F)(F)F)[C@@H]1c2ccccc2C(=O)N(Cc2cc(C(F)(F)F)cc(C(F)(F)F)c2)[C@H]1c1ccc(CO)cc1 | -0.203 |
| CCOC(=O)C1=CCC(c2cccn2C(=O)OC(C)(C)C)N(S(=O)(=O)c2ccc(C)cc2)C1 (centres undefined) | 0.0267 |
| C=CCN1C(=O)[C@@]2(O[C@@H](CCO)[C@H]([Si](C)(C)c3ccc(OC)cc3)[C@H]2C)c2cc(N3CCCCC3=O)ccc21 | -0.0415 |
| [N-]=[N+]=NCc1ccccc1C[C@@]1(C(N)=O)N=C(c2ccc(OCCCO)cc2)O[C@@H]1c1ccccc1N=[N+]=[N-] | 0.0131 |
| C=CC[C@@]1(C(=O)NCCCOC)N=C(c2ccc(OCCCO)cc2)O[C@@H]1c1ccccc1CN=[N+]=[N-] | 0.106 |
| [N-]=[N+]=Nc1ccccc1C[C@]1(C(N)=O)COC(c2ccc(OCCCO)cc2)=N1 | 0.0247 |
| CC(C)C[C@@H]1NC(=O)[C@@H]2C[C@H](C(=O)NCCCCCNC(=O)CS)[C@H](c3ccc(O)cc3)N2C1=O | -0.0986 |
| C=C(COC)/C(=C/C[C@@H](OC(C)=O)c1cccc(OCCO)c1)c1cnc2ccccc2c1 | -0.076 |
| COC(=O)C(CC#Cc1ccc2c(c1)[C@]1(C(=O)N2)[C@H](C(N)=O)[C@H]2C(=O)O[C@H](c3ccccc3)[C@H](c3ccccc3)N2[C@@H]1c1ccccc1OCCO)C(=O)OC | -0.0122 |
| COC(=O)c1c2oc(c1C(=O)OC)C(=O)N[C@H](Cc1ccccc1)Cn1cc(nn1)C1(CCCCC1)NC(=O)N[C@H](CO)CC2 | -0.0561 |
| C=CCNC(=O)[C@H]1[C@@H]2C(=O)O[C@@H](c3ccccc3)[C@@H](c3ccccc3)N2[C@@H](c2ccc(OCCO)cc2)[C@]12C(=O)N(C(=O)OCCOC)c1ccc(C#CCC(C(=O)OC)C(=O)OC)cc12 | 0.18 |
| Cc1ccc(S(=O)(=O)N2[C@@H](c3ccccc3)C(C(=O)O)=CC[C@H]2c2ccc(F)cc2)cc1 | 0.174 |
| C[C@H]1C2[C@H](Cc3ccccc3)NC(=O)[C@]23C(=O)N[C@@H](Cc2ccccc2)C(=O)N2CCC[C@H]2C(=O)NC/C=C/CC/C=C/C3[C@@H]2O[C@]12C (some centres undefined) | -0.129 |
| CCCC1(C(=O)OC)C=C2C(=C(C(C)C)C(=O)C2C)CN1 (centres undefined) | -0.133 |
| O=C1NC(=O)C2C1C=CC(C(O)C(O)CO)N2Nc1ccccn1 (centres undefined) | -0.154 |
| CCOC(=O)C1=CC[C@@H](c2ccccc2)N(S(=O)(=O)c2ccc(C)cc2)[C@@H]1C#N | 0.0056 |
| [N-]=[N+]=NCc1ccccc1[C@H]1OC(c2ccc(OCCCO)cc2)=N[C@@]1(CCS(=O)(=O)c1ccccc1)C(=O)O | -0.0087 |
